Recorded values, source paper PMC11882969.

Recorded rep3_displacement values for a group of compounds are listed next.
molecular target: CB1 (rCB1) (Rattus norvegicus, UniProt P20272); assay: Single-point radioligand displacement screen; assay type: binding; conditions: Figure 1c source data, replicate 3
Sequence (P20272 whole entry): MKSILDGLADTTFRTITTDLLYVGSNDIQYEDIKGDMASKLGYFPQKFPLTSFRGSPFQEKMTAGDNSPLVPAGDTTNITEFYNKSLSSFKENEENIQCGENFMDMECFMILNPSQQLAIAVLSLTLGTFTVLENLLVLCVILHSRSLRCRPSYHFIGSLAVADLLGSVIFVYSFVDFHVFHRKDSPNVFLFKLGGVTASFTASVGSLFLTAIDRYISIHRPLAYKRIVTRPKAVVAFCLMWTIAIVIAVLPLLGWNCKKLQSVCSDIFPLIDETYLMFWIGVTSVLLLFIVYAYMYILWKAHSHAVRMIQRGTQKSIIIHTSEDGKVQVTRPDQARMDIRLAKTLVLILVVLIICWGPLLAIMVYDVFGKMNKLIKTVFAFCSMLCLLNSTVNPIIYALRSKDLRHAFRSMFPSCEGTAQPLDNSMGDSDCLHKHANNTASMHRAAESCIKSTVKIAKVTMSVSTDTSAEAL

- Compound: "COC(=O)c1cc(C(=O)N2CCc3ccc(Cl)cc3C2)cc([N+](=O)[O-])c1"
  rep3_displacement: 20.2
- Compound: "COc1ccc(Cl)c(-c2cc(C(=O)N3CCOC[C@@H]3CC(C)C)on2)c1"
  rep3_displacement: 23.7
- Compound: "CCOC(=O)CCC(OC(=O)c1nc(C)n(-c2ccccc2)n1)c1ccccc1 (stereo not shown)"
  rep3_displacement: 39.6
- Compound: "Cc1ccn2cc(C(=O)N3CCc4c(F)cc(Br)cc4C3)nc2c1"
  rep3_displacement: 20
- Compound: "CC(C)c1ncc(Cl)c(C(=O)N2CC(Cc3ccccc3Cl)C2)n1"
  rep3_displacement: 67.5
- Compound: "Cn1ncc2c(N3CCC(COCc4ccccc4)C3)nc(Cl)nc21 (stereo not shown)"
  rep3_displacement: -3.3
- Compound: "CN(C)c1cc(-c2nc(Cc3ccc4c(c3)OCCO4)no2)c2ccccc2n1"
  rep3_displacement: 44.5
